System: MDA-MB-468 breast
Assay: NCI tumour cell line growth inhibition, 48 h
Assay endpoint: TGI

# example entries with known answers
O=C(Nc1ccc(O)c(NS(=O)(=O)c2ccc(F)cc2)c1)c1ccc(-c2ccccc2)cc1 :: 10.8 µM
Cc1cccc2c1NC(=O)C2(c1ccc(O)cc1)c1ccc(O)cc1 :: 4.24 µM
CC(=O)Nc1ccc(S(=O)(=O)c2ccc(NC(C)=O)cc2)cc1 :: > 100 µM
CCOC(=O)c1c(NC(=O)c2ccccc2C(F)(F)F)sc2c1CCC(=O)C2 :: 7.52 µM
COc1ccc(C(=O)c2cc(OC)c(OC)c(OC)c2)cc1/C=C/C(=O)c1ccc2c(c1)OCO2 :: 4.06 µM
CCc1cccc(CC)c1NC(=O)c1ccn2c1CCc1cnc(Nc3ccc(N4CCN(C)CC4)cc3OC)nc1-2 :: 5.91 µM
c1ccc(C2=NN[C@H](c3cn(-c4ccccc4)nc3-c3ccccc3)C2)cc1 :: > 100 µM
CNC(=O)c1c(NC(=O)c2ccc(C(C)C)cc2)sc2c1CCC(=O)C2 :: 2.33 µM

Batch: TGI for all items listed.
1. CCCCC/C=C\C/C=C/CCCCCCCCNC(=O)Nc1ccc([N+](=O)[O-])cc1
2. COc1cc(/C=N/Nc2ncnc3c2cnn3Cc2ccccc2)ccc1O

Result:
1. 73 µM
2. > 25 µM

Batch: TGI for all items listed.
1. CS(=O)(=O)c1ccc(-c2[nH]c3ccc(F)cc3c2/C=N/NC(N)=S)cc1
2. Nc1ncnc2c1c(C(=O)NO)cn2C1OC(CO)C(O)C1O (configuration not stated)

Result:
1. 13.4 µM
2. 0.908 µM

###

Task for the reader: assign each of the following compounds its reported GI50.
Tested on: MDA-MB-468 breast
Assay: NCI tumour cell line growth inhibition, 48 h

# example entries with known answers
O=C(Nc1ccc(O)c(NS(=O)(=O)c2ccc(F)cc2)c1)c1ccc(-c2ccccc2)cc1 :: 2480 nM
O=C1c2ccccc2CCC1(Br)Br :: 1200 nM
CCc1cccc(CC)c1NC(=O)c1ccn2c1CCc1cnc(Nc3ccc(N4CCN(C)CC4)cc3OC)nc1-2 :: 2100 nM
O=C(Nc1ccc(Cl)c(C(F)(F)F)c1)N1CCN(c2cc(-c3cn(-c4ccccc4)nc3-c3cccc(O)c3)ccn2)CC1 :: 1030 nM
Cc1csc(-c2ccc3c(c2)COC3(CCCN(C)C)c2ccc(F)cc2)c1 (centres undefined) :: 1700 nM
N=C(N)c1ccc(-c2ccc(-c3ccc(Cl)c(Cl)c3)o2)nc1 :: 1820 nM
CC(=O)Nc1ccc(S(=O)(=O)c2ccc(NC(C)=O)cc2)cc1 :: 64800 nM
COc1cc(C2C(C(=O)OCc3ccccc3)=C(C)NC(C)=C2C(=O)OCc2ccccc2)cc(OC)c1OC :: 2430 nM

Okay, next one:
Query: // GI50 lookup, key: CO[C@@H]1CSSC1Cn1nc(-c2ccc(Oc3ccccc3)cc2)c2c(N)ncnc21 (some centres undefined)
Result: 5180 nM

###

Tested on: HT29 colon
Assay: NCI tumour cell line growth inhibition, 48 h; in the data active = GI50 below about 0.43 µM; inactive = the rest
# valid calls are active, inactive; nothing else

Worked examples follow.
CO[C@@H]1CSSC1Cn1nc(-c2ccc(Oc3ccccc3)cc2)c2c(N)ncnc21 (some centres undefined) :: inactive
Cc1ccc(C2CC(c3ccc(NC(=O)Nc4ccccc4)cc3)=NN2c2ccc(S(C)(=O)=O)cc2)cc1 (centres undefined) :: inactive
CN(CCSSCCN1CCOCC1)C(=O)Oc1cc2c(c3ccccc13)[C@H](CCl)CN2C(=O)c1cc2cc(OCCCN3CCC3)ccc2[nH]1 :: active

With those in mind, consider the next molecule.
Query: Tell me the assay call for "O=C(Nc1ccc(Cl)c(C(F)(F)F)c1)N1CCN(c2cc(-c3cn(-c4ccccc4)nc3-c3cccc(O)c3)ccn2)CC1" please.
Result: inactive
